Target: KRAS G12C (Homo sapiens (Human), UniProt P01116, C118A/G12C)
Sequence (P01116 other isoform, or with tags, fused parts or gaps G12C/C118A): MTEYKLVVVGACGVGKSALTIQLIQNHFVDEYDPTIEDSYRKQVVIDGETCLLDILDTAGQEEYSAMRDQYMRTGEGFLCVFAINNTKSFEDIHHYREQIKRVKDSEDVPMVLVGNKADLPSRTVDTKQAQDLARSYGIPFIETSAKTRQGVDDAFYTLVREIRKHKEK
Assay: 2 h coupled exchange assay
Format: biochemical
Conditions: Avg 2 h Coupled exchange IC50, 2 h compound pre-incubation, SOS-mediated nucleotide exchange
Please assign a class to every record based on measured IC50, with ranges low interval: < 100 nM; middle interval: ≥ 100 nM and < 200 nM; high interval: ≥ 200 nM

C=CC(=O)N1CC2(CCN(c3nc4c(c(-c5c(C)ccc6[nH]ncc56)c3C#N)COCCC4(F)F)C2)C1 [Example 13-15]
middle interval
C=CC(=O)N1CC2(CCN(c3nc4c(c(-c5c(C)ccc6[nH]ncc56)c3C#N)C3C(C4)C3(C)C)C2)C1 (stereo not shown) [Example 13-84]
middle interval
C=CC(=O)N1CC2(C1)CN(c1nc3c(F)cccc3c(-c3c(C)ccc4[nH]ncc34)c1C#N)CC2(F)F [Example 1-39]
high interval

# bin label for C=CC(=O)N1CC2(CCN(c3nc4c(c(-c5c(Cl)ccc6[nH]ncc56)c3C#N)CCC(C)(C)C4)C2)C1 [Example 13-144] low interval

# bin label for C=CC(=O)N1CC2(CCN(c3nc4c(c(-c5cc(O)cc(F)c5F)c3C)CCC(C)(C)C4)C2)C1 [Example 2-26] high interval

====

Target: KRAS G12C (Homo sapiens (Human), UniProt P01116, C118A/G12C)
Assay: 2 h coupled exchange assay
Assay type: biochemical
Details: Avg 2 h Coupled exchange IC50, 2 h compound pre-incubation, SOS-mediated nucleotide exchange
measured_attribute: pIC50
Numbers only, as −log10 of the molar value.

C=CC(=O)N1CC2(CCN(c3nc4c(c(-c5cc(O)ccc5Cl)c3C#N)C[C@H]3C[C@@H]4C3(C)C)C2)C1 (single isomer, unassigned) [Example 2-74]
7.68
C=CC(=O)N1CC2(CCN(c3nc4cc(OC)ccc4c(-c4c(C)ccc5cnn(C)c45)c3C)C2)C1
6.33

Hey, quick one: what's pIC50 for each of these?
1. C=CC(=O)N1CC2(CCN(c3nc4c(c(-c5cccc(Cl)c5Cl)n3)CCCC4)C2)C1
2. C=CC(=O)N1CC2(CCN(c3nc4c(c(-c5cc(O)ccc5Cl)c3C#N)C[C@H]3C[C@@H]4C3(C)C)C2)C1 [Example 2-64]

1: 5.37; 2: 7.41

====

Assignment: determine reported IC50 for the given molecules.
Target: KRAS G12C (Homo sapiens (Human), UniProt P01116, C118A/G12C)
Test: 2 h coupled exchange assay
Assay type: biochemical
Conditions: Avg 2 h Coupled exchange IC50, 2 h compound pre-incubation
Method: The term “2 h coupled exchange assay” or “20 h coupled exchange assay” as used herein refers to the assay described in the Section entitled “BIOLOGICAL EVALUATION.”
Answers are plain numbers, in µM.

C=CC(=O)N1CC2(CCN(c3nc4c(c(-c5ccccc5O)c3C#N)CCC(c3scnc3C)=C4)C2)C1
0.136
C=CC(=O)N1CC2(CCN(c3nc4c(c(-c5ccccc5F)c3C#N)CCN(C[C@@H]3CCC(=O)N3)C4)C2)C1
0.957
C=CC(=O)N1CC2(CCN(c3nc4c(c(-c5ccc(F)c6sc(N)nc56)c3C)COC(C)(C)C4)C2)C1 (single isomer, unassigned) [Example 14-39]
1.77
C=CC(=O)N1CC2(CCN(c3nc4cc(OC(C)C)ccc4c(-c4ccccc4Cl)c3C#N)C2)C1
0.834
C=CC(=O)N1CC2(CCN(c3nc4cc(-c5scnc5C)cnc4c(-c4ccc(F)cc4)c3C#N)C2)C1
0.28

Hey, quick one: what's IC50 for each of these?
1. C=CC(=O)N1CC2(CCN(c3nc4cc(OC)ccc4c(-c4c(C)ccc5[nH]ncc45)c3F)C2)C1
2. C=CC(=O)N1CC2(CCN(c3nc4c(c(-c5ccccc5OC)c3C#N)CCC(c3scnc3C)=C4)C2)C1
3. C=CC(=O)N1CC2(CCN(c3nc4c(c(-c5c(C)c(Cl)cc6cnn(C)c56)c3F)COC(C)(C)C4)C2)C1 (single isomer, unassigned) [Example 14-79]
4. C=CC(=O)N1CC2(CCN(c3nc4cc(-c5ccnn5C)ccc4c(-c4c(O)cccc4Cl)c3C)C2)C1
5. C=CC(=O)N1CC2(CCN(c3nc4c(c(-c5cc(O)ccc5Cl)c3C)CCN(C(C)C)C4)C2)C1
6. C=CC(=O)N1CC2(CCN(c3nc4c(c(-c5ccc(F)cc5F)c3C)CCN(c3scnc3C)C4)C2)C1

1. 0.134
2. 0.394
3. 9.6
4. 0.39
5. 0.419
6. 0.172

Hey, quick one: what's IC50 for each of these?
1. C=CC(=O)N1CC2(CCN(c3nc4cc(-c5ccnn5C)ccc4c(-c4cccc(F)c4Cl)c3C)C2)C1
2. C=CC(=O)N1CC2(CCN(c3nc4cc(-c5scnc5C)cnc4c(-c4cccc(C)c4C)c3C#N)C2)C1 (single isomer, unassigned) [Example 19-14]
3. C=CC(=O)N1CC2(CCN(c3nc4c(c(-c5cc(O)cc6ccccc56)c3F)COC(C)(C)C4)C2)C1 (single isomer, unassigned) [Example 14-70]

1: 0.716; 2: 0.038; 3: 0.068

Hey, quick one: what's IC50 for each of these?
1. C=CC(=O)N1CC2(CCN(c3nc4c(c(-c5cc(O)ccc5F)c3C#N)CC3CCC4N3C(C)C)C2)C1 (centres unmarked)
2. C=CC(=O)N1CC2(CCN(c3nc4cc(-c5cncn5C)cnc4c(-c4ccccc4F)c3C#N)C2)C1

[0.933, 0.789]

Hey, quick one: what's IC50 for each of these?
1. C=CC(=O)N1CC2(CCN(c3cc4c(c(-c5c(C)ccc6[nH]ncc56)c3Cl)OCCC4)C2)C1
2. C=CC(=O)N1CC2(CCN(c3nc4cc(-c5ccnn5C)ccc4c(-c4ccc(F)cc4F)c3C)C2)C1

0.076
0.708

Hey, quick one: what's IC50 for each of these?
1. C=CC(=O)N1CC2(CCN(c3nc4c(c(-c5c(C)ccc6cnn(C)c56)c3C(F)F)COC(C)(C)C4)C2)C1
2. C=CC(=O)N1CC2(CCN(c3nc4c(c(-c5cccc(C)c5C)n3)CC[C@@H](c3scnc3C)C4)C2)C1 (single isomer, unassigned)
3. C=CC(=O)N1CC2(CCN(c3nc4c(c(-c5[nH]c(=O)c(Br)c6ccccc56)c3C#N)CCC(C)(C)C4)C2)C1
4. C=CC(=O)N1CC2(CCN(c3nc4cc(-c5scnc5C)cnc4c(-c4ccc(F)c(O)c4)c3C#N)C2)C1
5. C=CC(=O)N1CC2(CCN(c3nc4c(c(-c5c(C)ccc6[nH]ncc56)c3C)CCN(C(C)C)C4)C2)C1 (single isomer, unassigned) [Example 18-19]
6. C=CC(=O)N1CC2(CCN(c3nc4c(c(-c5ccccc5F)c3C#N)CCN(CC3CCCN3C)C4)C2)C1 (centres unmarked)

1. 0.648
2. 0.038
3. 0.619
4. 0.371
5. 0.131
6. 0.822

Hey, quick one: what's IC50 for each of these?
1. C=CC(=O)N1CC2(CCN(c3nc4c(c(-c5c(C)ccc6[nH]ncc56)c3C)CCN(C(C)C)C4)C2)C1 [Example 18-2]
2. C=CC(=O)N1CC2(CCN(c3nc4c(c(-c5ccccc5Cl)c3C#N)CCC(c3scnc3C)=C4)C2)C1 (single isomer, unassigned) [Example 23-41]

0.268
0.325

====

Biological target: KRAS G12C (Homo sapiens (Human), UniProt P01116, C118A/G12C)
Experiment: 2 h coupled exchange assay
Assay type: biochemical
Conditions: Avg 2 h Coupled exchange IC50, 2 h compound pre-incubation
Threshold 200 nM. IC50 below it: TRUE. IC50 at it or above: FALSE.

C=CC(=O)N1CC2(CCN(c3nc4c(c(-c5cc(O)ccc5F)c3C)CCN(c3scnc3C)C4)C2)C1
TRUE
C=CC(=O)N1CC2(CCN(c3nc4c(c(-c5ncccc5C)c3C#N)CCC(c3scnc3C)=C4)C2)C1 (single isomer, unassigned) [Example 23-26]
FALSE
C=CC(=O)N1CC2(CCN(c3nc4c(c(-c5c(C)ccc6[nH]ncc56)c3F)C[C@H]3C[C@@H]4C3(C)C)C2)C1 (single isomer, unassigned) [Example 14-73]
TRUE

Does the reported IC50 of `C=CC(=O)N1CC2(CCN(c3nc4cc(-n5cncc5C)ccc4c(-c4ccccc4F)c3C#N)C2)C1` stay below 200 nM? TRUE

Does the reported IC50 of `C=CC(=O)N1CC2(CCN(c3nc4c(c(-c5cc(O)cc6ccccc56)c3C)CCN(C(C)C)C4)C2)C1` stay below 200 nM? FALSE

Does the reported IC50 of C=CC(=O)N1CC2(CCN(c3nc4c(c(-c5cc(O)ccc5Cl)c3C)CCN(C3CCCN(C)C3)C4)C2)C1 (stereo not shown) stay below 200 nM? TRUE

This collection of values is drawn from patent US20240059703A1.
